# System: UACC-257 melanoma
# method-notes: NCI-60 one-dose screen, 48 h (100 = growth as untreated, 0 = no growth, -100 = all killed)
# conditions-used: 10 µM unless noted
Compounds without any hit were thinned out: in the full panel of roughly 83,000, 20% have a hit.
just bin them by growth: bin 1 (below 50%), bin 2 (50% to below 90%), bin 3 (90% or more)

Below, 5 molecules whose answers are already recorded.
>>> qualitative_label("CN1C2CCC1/C(=C\\c1ccc(F)cc1)C(=O)/C2=C/c1ccc(F)cc1")
"bin 1"
>>> qualitative_label("COc1ccc(-c2cc(-c3cn(-c4cccc(Cl)c4)nc3-c3ccc(OC)cc3)[nH]c(=S)n2)cc1")
"bin 2"
>>> qualitative_label("Clc1nnc2c3ccccc3ccn12")
"bin 3"
>>> qualitative_label("CN(C)c1nc(-c2ccco2)n2nc(-c3ccc(Cl)cc3)cc2n1")
"bin 3"
>>> qualitative_label("O=c1c2cc(Br)cc(Br)c2nc(-c2ccc(Cl)cc2)n1/N=C/c1cccc(F)c1")
"bin 3"

Given `CN1CCC2(CC1)N=C(SCC(=O)Nc1cnc3ccccc3c1)C(c1ccc(Br)cc1)=N2` , name the class its growth places it in.
bin 1

Okay, and `CCCCCCCCCCCCCCCC1=NC(C)(C)CN1C(C)C` ?
bin 1

Okay, and CC1OC(n2c3ccccc3c3c4c(c5c6ccccc6[nH]c5c32)C(=O)N(CCN[C@H]2CCC[C@@H]2N)C4=O)CC(O)C1O (stereo not given in full) ?
bin 2

Okay, and `C=C(C)[C@@H]1CC[C@]2(C(=O)NC(COC(=O)C(Cl)Cl)(COC(=O)C(Cl)Cl)COC(=O)C(Cl)Cl)CC[C@]3(C)[C@H](CC[C@@H]4[C@@]5(C)CC[C@H](OC(C)=O)C(C)(C)[C@@H]5CC[C@]43C)[C@@H]12` ?
bin 2

Okay, and `C(=Nc1ccc(-c2ccc(N=Cc3ccccc3)cc2)cc1)c1ccccc1` ?
bin 3

----------
# Tested on: SF-268 CNS
# method-notes: NCI-60 one-dose screen, 48 h
# conditions-used: 10 µM unless noted
Compounds without any hit were thinned out: in the full panel of roughly 83,000, 20% have a hit. The source made the active and inactive calls. How the source made its calls: active means growth percent below 10; inactive means the rest.
// one of active, inactive, no free text

Below, 5 compounds whose answers are already recorded.
>>> qualitative_label("Cc1cc(O)c2cc3c(O)c(O)ccc3cc2c1")
"inactive"
>>> qualitative_label("Clc1cc2nc(-c3ccccc3)c(-c3ccccc3)nc2cc1Cl")
"inactive"
>>> qualitative_label("COc1ccc(/C=C(\\C#N)c2cc(OC)c(OC)c(OC)c2)cc1")
"inactive"
>>> qualitative_label("C=CCOC(=O)C1=C(C)NC2=C(C(=O)CC(C)(C)C2)C1c1ccc(OC)cc1 (centres undefined)")
"inactive"
>>> qualitative_label("CCCCCCCC/C=C/CCCCCCCC1=NC(C)(C)CN1C(C)C")
"active"

// return assay outcome for `O=c1c2cc(Cl)ccc2oc2ccc(OCCCCCN3CCCCC3)cc12`
inactive

Okay, and COc1cc(CN(CCC(O)N2CCCC2=O)Cc2ccc3c(c2)OCO3)cc(OC)c1OC (centres undefined) ?
inactive

Okay, and `CC(C)(C)c1ccc(OC(=O)Nc2ccccc2)cc1` ?
inactive

Okay, and `COc1ccccc1-[n+]1cc(-c2ccc(-c3ccccc3)cc2)n2c1CCCCC2` ?
inactive

Okay, and `CCn1c(=O)c(C(=O)NCCCO)c(O)c2ccccc21` ?
inactive

Okay, and CC1(C)OC2OC3C(CN)OC(c4ccccc4)OC3C2O1 (centres undefined) ?
inactive
